System: diaphorase
assay-text: fluorescently labeled diaphorase binding to peptide array with or without excess FAD
test-parameters: 1 micromolar labeled diaphorase, no FAD; 65535 is detector saturation
observed-property: 1 micro no FAD (array fluorescence of bound diaphorase)

1. YRFAQYKGQKDGSG [array peptide with C-terminal GSG linker]; 4467.75
2. FGKLYQLYNDGSG [array peptide with C-terminal GSG linker]; 1911.25

A. RWYKNGGSG [array peptide with C-terminal GSG linker]
B. RYNLYKPSDGSG [array peptide with C-terminal GSG linker]
Ask: Between A and B , which one shows the smaller 1 micro no FAD (array fluorescence of bound diaphorase) number? # respond with the chosen item's label
Result: B

I. YRPYGPVYNGGSG [array peptide with C-terminal GSG linker]
II. PRSFGYNNVGGSG [array peptide with C-terminal GSG linker]
Ask: Between item I and item II , which reported 1 micro no FAD (array fluorescence of bound diaphorase) is smaller? Provide the label of your selected option as the answer.
Result: II
(II: 6842.5, I: 18709.5)

I. EGYANKLLALFSGSG [array peptide with C-terminal GSG linker]
II. VLSLNQVYSEGSG [array peptide with C-terminal GSG linker]
Ask: Field: lower recorded 1 micro no FAD (array fluorescence of bound diaphorase) (choose I or II ) Answer = label.
Result: I
